Test system: Abutilon theophrasti (ABUTH)
Assay: Pre-emergence Test (glasshouse, percentage damage to the plant)
Format: in vivo
Details: 1000 g/ha unless otherwise stated, five-point scale
Quick reference: percentage damage to the plant, ABUTH of the listed items.

COMPOUND_SMILES: CCn1c(C)c(-c2ccc(C(F)F)cc2)c(=O)c(C(=O)O)c1-c1ccc(Cl)c(Cl)c1
percentage damage to the plant, ABUTH: 2 (2=21-40%)
--
COMPOUND_SMILES: CCn1c(C)c(-c2ccc(C(F)(F)F)nc2)c(=O)c(C(=O)O)c1-c1ccc(Cl)c(Cl)c1
percentage damage to the plant, ABUTH: 1 (1=0-20%)
--
COMPOUND_SMILES: CCn1c(C)c(-c2ccc(Cl)c(C#N)c2)c(=O)c(C(=O)O)c1-c1ccc(Cl)c(Cl)c1
percentage damage to the plant, ABUTH: 1 (1=0-20%)
--
COMPOUND_SMILES: CCn1c(C)c(-c2ccc(C(=O)N(C)C)cc2)c(=O)c(C(=O)O)c1-c1ccc(Cl)c(Cl)c1
percentage damage to the plant, ABUTH: 1 (1=0-20%)
--
COMPOUND_SMILES: CCn1c(C)c(-c2ccc(Cl)c(Cl)c2)c(=O)c(C(=O)O)c1-c1ccc(Cl)cc1
percentage damage to the plant, ABUTH: 0

Suppose we examine the compound CCn1c(C)c(-c2cnc(F)c(F)c2)c(=O)c(C(=O)O)c1-c1ccc(Cl)c(Cl)c1 ; what percentage damage to the plant, ABUTH value has been reported?
3 (3=41-60%)

What measured percentage damage to the plant, ABUTH goes with CCOC(=O)c1c(-c2ccc(F)c(F)c2)n(CC)c(C)c(-c2ccc(Cl)cc2)c1=O ?
0

* * *

Tested on: Echinochloa crus-galli (ECHCG)
Assay: Post-emergence Test (glasshouse, percentage damage to the plant)
Assay type: in vivo
Details: post-emergence spray, 1000 g/ha unless otherwise stated, evaluated after 13 days
Listing of entries alongside the reported Post-emergence Test ECHCG, percentage damage to the plant (five-point scale).

Examples from the recorded data:
COMPOUND: CCn1c(C)c(-c2ccc(OC)c(OC)c2)c(=O)c(C(=O)O)c1-c1ccc(Cl)c(Cl)c1
MEASURED_RESULT: 4 (4=61-80%)

COMPOUND: CCn1c(C)c(-c2ccc(C(F)(F)F)c(Cl)c2)c(=O)c(C(=O)O)c1-c1ccc(Cl)c(Cl)c1
MEASURED_RESULT: 1 (1=0-20%)

COMPOUND: CCn1c(C)c(-c2ccc(F)cc2OC)c(=O)c(C(=O)OC)c1-c1ccc(Cl)c(Cl)c1 [Compound 163]
MEASURED_RESULT: 0

COMPOUND: CCn1c(C)c(-c2ccoc2)c(=O)c(C(=O)O)c1-c1ccc(Cl)c(Cl)c1
MEASURED_RESULT: 2 (2=21-40%)

COMPOUND: CCn1c(C)c(-c2ccnc(F)c2)c(=O)c(C(=O)O)c1-c1ccc(Cl)c(Cl)c1
MEASURED_RESULT: 4 (4=61-80%)

What value of measured Post-emergence Test ECHCG, percentage damage to the plant (five-point scale) is listed for CCn1c(C)c(-c2ccncc2)c(=O)c(C(=O)O)c1-c1ccc(Cl)c(Cl)c1 ?
4 (4=61-80%)

Report Post-emergence Test ECHCG, percentage damage to the plant (five-point scale) for CCn1c(C)c(-c2ccc(COC)cc2)c(=O)c(C(=O)O)c1-c1ccc(Cl)c(Cl)c1 please.
3 (3=41-60%)

Need Post-emergence Test ECHCG, percentage damage to the plant (five-point scale) of CCn1c(C)c(-c2ccc(OC)c(F)c2)c(=O)c(C(=O)O)c1-c1ccc(Cl)c(Cl)c1 , thanks.
3 (3=41-60%)
